molecular target: Histone deacetylase 3 (Homo sapiens, UniProt O15379); test: Inhibition of HDAC3 (unknown origin) using Boc-Lys (Ac)-AMC as substrate measured after 30 mins by fluorescence based analysis
Sequence (O15379 whole entry): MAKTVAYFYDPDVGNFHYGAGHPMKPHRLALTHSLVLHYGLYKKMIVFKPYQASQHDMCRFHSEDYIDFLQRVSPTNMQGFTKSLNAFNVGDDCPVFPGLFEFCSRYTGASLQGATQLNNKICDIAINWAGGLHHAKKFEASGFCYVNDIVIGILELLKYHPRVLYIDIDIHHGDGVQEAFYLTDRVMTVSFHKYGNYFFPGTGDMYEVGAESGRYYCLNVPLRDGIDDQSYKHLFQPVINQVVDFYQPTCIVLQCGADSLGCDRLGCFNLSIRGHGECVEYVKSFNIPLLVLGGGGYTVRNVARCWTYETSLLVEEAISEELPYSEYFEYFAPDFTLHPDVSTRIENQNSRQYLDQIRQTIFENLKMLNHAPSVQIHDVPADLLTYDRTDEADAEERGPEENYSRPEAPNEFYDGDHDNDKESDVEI

smilesStructure	outputUnit	IC50
COC(=O)/C=C/c1ccc(OCCCNc2cc3c([nH]c4ccccc43)c(-c3ccc(OC)cc3)n2)c(OC)c1	nM	148
COC(=O)/C=C/c1ccc(OCCNc2cc3c([nH]c4ccccc43)c(-c3ccc(OC)cc3)n2)c(OC)c1	nM	125

----------
system: PC-3; assay: Anticancer activity against human PC-3 cells assessed as reduction in cell viability; assay type: functional, cell-based

smilesStructure	measuredTarget	IC50 [µM]
COc1ccccc1NC(=O)N[C@H](C(=O)Nc1ccc(C(=O)NO)cc1)c1ccccc1	PC-3	1.51
